PDI listing for selected molecules.
- EXPERIMENT NOTES: Average particle size (ζ-Average) and PDI by dynamic light scattering (Zetasizer Nano ZSP)
- Assay type: physicochemical
- CONDITION PARAMETERS: FlucmRNA-loaded LNP, 50:10:38.5:1.5
Quick one: just the number, no unit, thanks!

[ask] Consider the molecule shown here: CCCCCCCCCC(CCCCCC)C(=O)OCCCCCCC(O)(CCCCCCOC(=O)C(CCCCCC)CCCCCCCCC)CCCCOC(=O)C1CCN(C)CC1 (centres unmarked) [CL15F 11-6] What is its recorded PDI?
[reply] 0.007

[ask] Query (molecule): CCCCCCCCCCC(CCCC)C(=O)OCCCCCCC(O)(CCCCCCOC(=O)C(CCCC)CCCCCCCCCC)CCCCN(CCC)CCC (centres unmarked) [CL4F 12-4] ; field requested: PDI
[reply] 0.015

[ask] Any idea what PDI was measured for CCCCC(CC)C(=O)OCCCCCCC(O)(CCCCCCOC(=O)C(CC)CCCC)CCCCN(CCC)CCC (centres unmarked) [CL4F 6-2] ?
[reply] 0.069

[ask] Entry CC(CCC(C(=O)OCCCCCCC(O)(CCCCCCOC(=O)C(CCC(C)CC(C)(C)C)C(C)CC(C)(C)C)CCCCOC(=O)C1CCN(C)CC1)C(C)CC(C)(C)C)CC(C)(C)C (centres unmarked) [CL15G6] has what PDI?
[reply] 0.012

[ask] What value of PDI has been recorded for this entry: CCCCCCCCCCC(CCCC)C(=O)OCCCCCCC(O)(CCCCCCOC(=O)C(CCCC)CCCCCCCCCC)CCCCOC(=O)C1CCN(C)CC1 (centres unmarked) [CL15F 12-4]
[reply] 0.009
